# credit: patent US9409952B2

Assay: Metabolic stability in human hepatic microsome
Format: in vitro ADME
Details: human, microsomes, pH 7.4, CL NADPH(+)
Starred links: 1 amine or outer side, 2 acyl side, 3 side chain; linkers in the order of their positions; H or OH if unused. Positions of bridges follow the written chain, without caps; N, C: chain ends. Non-standard residues stand in square brackets, D forms with d. Residues, ends and D or L forms follow the SMILES beside them. *: point of attachment. NMeF = CN[C@@H](Cc1ccccc1)C(=O)O; NMeI = CC[C@H](C)[C@H](NC)C(=O)O; NMeβAla = CN(CCC(=O)[*:2])[*:1]; NMeL = CN[C@@H](CC(C)C)C(=O)O; NMeV = CN[C@H](C(=O)O)C(C)C; NMeA = CN[C@@H](C)C(=O)O; Piperidide = C1CCN(*)CC1; dNMeA = CN[C@H](C)C(=O)O; β3hA = C[C@H](N)CC(=O)O; Sar = CNCC(=O)O
assay.endpoint: microsomal CLint at 1 uM (µL/min/mg)
API: value field is a number in µL/min/mg; no unit string.

[
  {
    "compound": "CC[C@H](C)[C@@H]1NC(=O)[C@H](C(C)C)N(C)C(=O)[C@H](CC(C)C)N(C)C(=O)[C@H](C)N(C)C(=O)[C@H]([C@@H](C)O)NC(=O)[C@H](Cc2ccccc2)N(C)C(=O)CCN(C)C(=O)C[C@@H](C(=O)N(C)[C@@H](Cc2ccccc2)C(=O)N(C)[C@@H](Cc2ccccc2)C(=O)N[C@@H](C)C(=O)N2CCCCC2)NC(=O)[C@H](C)N(C)C(=O)[C@H](CC(C)C)N(C)C1=O [DP-297] ([NMeβAla][NMeF]T[NMeA][NMeL][NMeV]I[NMeL][NMeA]D[NMeF][NMeF]A-Piperidide; lactam N-10)",
    "units.symbol": "µL/min/mg",
    "microsomal CLint at 1 uM": 78
  },
  {
    "compound": "CC[C@H](C)[C@@H]1NC(=O)[C@H](C)NC(=O)C[C@@H](C(=O)N2CCCCC2)NC(=O)[C@H](CC(C)C)N(C)C(=O)[C@H](CC(C)C)N(C)C(=O)[C@H](C(C)C)NC(=O)[C@H](C)NC(=O)[C@H](Cc2ccccc2)N(C)C(=O)[C@H](Cc2ccccc2)N(C)C(=O)[C@H]([C@@H](C)O)NC(=O)[C@H](CC(C)C)N(C)C(=O)[C@@H]2CCCN2C1=O [DP-10] (AIP[NMeL]T[NMeF][NMeF]AV[NMeL][NMeL]D-Piperidide; lactam N-12)",
    "units.symbol": "µL/min/mg",
    "microsomal CLint at 1 uM": 14
  },
  {
    "compound": "CC(C)C[C@H]1C(=O)N(C)[C@@H](Cc2ccccc2)C(=O)N(C)[C@@H](CC(C)C)C(=O)N[C@H](C(=O)N2CCCCC2)CC(=O)N[C@H](C(C)C)C(=O)N[C@@H](C)C(=O)N[C@@H]([C@@H](C)O)C(=O)N(C)[C@@H](C)C(=O)N[C@@H](Cc2ccccc2)C(=O)N1C [DP-78] ([dV]AT[NMeA]F[NMeL][NMeF][NMeL]D-Piperidide; lactam N-9)",
    "units.symbol": "µL/min/mg",
    "microsomal CLint at 1 uM": 57
  },
  {
    "compound": "CC[C@H](C)[C@@H]1NC(=O)[C@H](C)N(C)C(=O)[C@@H](C)N(C)C(=O)C[C@@H](C(=O)N2CCCCC2)NC(=O)[C@H](CC(C)C)N(C)C(=O)[C@H](C)N(C)C(=O)[C@H](Cc2ccccc2)N(C)C(=O)[C@H]([C@@H](C)O)NC(=O)[C@H](Cc2ccccc2)N(C)C(=O)[C@H](CC(C)C)N(C)C1=O [DP-51] ([dNMeA][NMeA]I[NMeL][NMeF]T[NMeF][NMeA][NMeL]D-Piperidide; lactam N-10)",
    "units.symbol": "µL/min/mg",
    "microsomal CLint at 1 uM": 96
  },
  {
    "compound": "CC[C@H](C)[C@@H]1NC(=O)[C@H](Cc2ccccc2)N(C)C(=O)[C@H](Cc2ccccc2)N(C)C(=O)[C@H](CC(C)C)N(C)C(=O)[C@H](CC(C)C)NC(=O)[C@H](CC(C)C)N(C)C(=O)[C@H](C)N(C)C(=O)[C@H]([C@@H](C)O)NC(=O)[C@H](C)NC(=O)C[C@@H](C(=O)N2CCCCC2)NC(=O)[C@H](C(C)C)N(C)C(=O)[C@@H]2CCCN2C1=O [DP-12] (AT[NMeA][NMeL]L[NMeL][NMeF][NMeF]IP[NMeV]D-Piperidide; lactam N-12)",
    "units.symbol": "µL/min/mg",
    "microsomal CLint at 1 uM": 32
  },
  {
    "compound": "CC(C)C[C@H]1C(=O)N[C@@H]([C@@H](C)O)C(=O)N(C)[C@@H](Cc2ccccc2)C(=O)N(C)[C@@H](CC(C)C)C(=O)NCC(=O)N(C)[C@@H](C(C)C)C(=O)N[C@@H](Cc2ccccc2)C(=O)N[C@H](C(=O)N(C)[C@@H](Cc2ccccc2)C(=O)N[C@@H](C)C(=O)N2CCCCC2)CC(=O)N(C)CC(=O)N[C@@H](C(C)C)C(=O)N1C [DP-304] ([Sar]V[NMeL]T[NMeF][NMeL]G[NMeV]FD[NMeF]A-Piperidide; lactam N-10)",
    "units.symbol": "µL/min/mg",
    "microsomal CLint at 1 uM": 212
  },
  {
    "compound": "CC(C)C[C@H]1C(=O)N(C)[C@@H](C)C(=O)N(C)[C@@H](C)C(=O)N(C)[C@@H](Cc2ccccc2)C(=O)N[C@@H]([C@@H](C)O)C(=O)N(C)[C@@H](Cc2ccccc2)C(=O)N(C)[C@@H](CC(C)C)C(=O)N2CCC[C@H]2C(=O)N[C@@H](C)CC(=O)N[C@@H](C)C(=O)NCC(=O)N1C [DP-766] (cyclo(AG[NMeL][NMeA][NMeA][NMeF]T[NMeF][NMeL]P[β3hA]))",
    "units.symbol": "µL/min/mg",
    "microsomal CLint at 1 uM": 54
  },
  {
    "compound": "CC[C@H](C)[C@H](NC(=O)[C@H](CC(C)C)NC(=O)[C@H](Cc1ccccc1)NC(=O)[C@@H]1CC(=O)N[C@@H](C)C(=O)N[C@@H]([C@@H](C)CC)C(=O)N(C)[C@@H](C)C(=O)N(C)[C@@H](Cc2ccccc2)C(=O)N[C@@H]([C@@H](C)O)C(=O)N(C)[C@@H](Cc2ccccc2)C(=O)N[C@@H](CC(C)C)C(=O)N2CCC[C@H]2C(=O)N1)C(=O)N[C@@H](C)C(=O)N1CCCCC1 [DP-666] (AI[NMeA][NMeF]T[NMeF]LPDFLIA-Piperidide; lactam N-9)",
    "units.symbol": "µL/min/mg",
    "microsomal CLint at 1 uM": 74
  }
]

Then there is this compound:
Task: Report measured microsomal CLint at 1 uM; entry is CC[C@H](C)[C@H]1C(=O)N(C)[C@@H](C)C(=O)N[C@@H](Cc2ccccc2)C(=O)N[C@@H]([C@@H](C)O)C(=O)N[C@@H](CC(C)C)C(=O)N(C)[C@@H](Cc2ccccc2)C(=O)N(C)[C@@H](C(C)C)C(=O)N[C@H](C(=O)N2CCCCC2)CC(=O)N[C@@H](C)C(=O)N[C@@H](CC(C)C)C(=O)N1C [DP-18] (AL[NMeI][NMeA]FTL[NMeF][NMeV]D-Piperidide; lactam N-10)
Result: 202
